Quick reference: hERG current change (%, negative = inhibition) at 10uM of the listed items.
- assay_target: human ether-à-go-go-related gene (hERG) potassium channel (human, UniProt Q12809);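 note: peak tail current of the secondary pulse compared with the same well before compound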
- Sequence (Q12809 whole entry, looked up): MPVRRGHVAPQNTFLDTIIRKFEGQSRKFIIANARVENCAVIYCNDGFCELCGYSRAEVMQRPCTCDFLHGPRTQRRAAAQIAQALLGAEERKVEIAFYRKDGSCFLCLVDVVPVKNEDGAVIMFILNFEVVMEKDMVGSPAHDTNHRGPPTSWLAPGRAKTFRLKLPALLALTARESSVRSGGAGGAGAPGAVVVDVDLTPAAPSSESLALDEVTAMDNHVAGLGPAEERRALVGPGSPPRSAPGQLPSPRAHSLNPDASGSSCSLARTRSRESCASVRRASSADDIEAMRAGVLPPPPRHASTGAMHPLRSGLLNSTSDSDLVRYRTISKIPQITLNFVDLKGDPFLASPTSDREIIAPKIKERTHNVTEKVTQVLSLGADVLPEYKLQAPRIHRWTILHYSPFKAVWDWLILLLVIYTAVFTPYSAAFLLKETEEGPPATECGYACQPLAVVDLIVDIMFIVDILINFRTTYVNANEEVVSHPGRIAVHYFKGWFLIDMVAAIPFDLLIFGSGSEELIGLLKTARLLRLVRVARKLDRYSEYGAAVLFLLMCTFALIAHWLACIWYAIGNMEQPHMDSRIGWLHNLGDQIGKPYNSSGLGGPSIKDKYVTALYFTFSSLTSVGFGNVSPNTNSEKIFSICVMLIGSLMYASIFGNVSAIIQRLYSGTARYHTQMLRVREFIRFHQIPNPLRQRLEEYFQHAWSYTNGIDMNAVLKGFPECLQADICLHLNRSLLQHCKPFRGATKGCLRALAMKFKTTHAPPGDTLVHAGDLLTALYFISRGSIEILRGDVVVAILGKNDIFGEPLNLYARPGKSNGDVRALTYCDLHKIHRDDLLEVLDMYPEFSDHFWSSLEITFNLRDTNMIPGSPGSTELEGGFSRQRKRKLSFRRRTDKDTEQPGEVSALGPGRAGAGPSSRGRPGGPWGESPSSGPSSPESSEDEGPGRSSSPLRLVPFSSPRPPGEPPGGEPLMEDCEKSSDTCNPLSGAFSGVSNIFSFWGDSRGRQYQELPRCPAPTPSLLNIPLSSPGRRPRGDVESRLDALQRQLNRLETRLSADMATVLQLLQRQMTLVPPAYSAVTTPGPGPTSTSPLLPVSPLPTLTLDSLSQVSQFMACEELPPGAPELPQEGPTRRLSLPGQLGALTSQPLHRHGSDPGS
- assay_procedure: primary screen, population patch clamp on CHO cells stably expressing hERG; higher = less effect of the substance
Among all 310,000 compounds or so, about 14,000 (4.5%) showed an effect of 50% or more. The effect is printed as a negative number. Many of the other results were omitted from the sample, so strong results are more common in it than they were.
quantity_kind: hERG current change (%, negative = inhibition) at 10uM (%)

{"cpd_smiles": "CC(=O)c1cccc(NC(=O)CN2CCN(S(=O)(=O)/C=C/c3ccccc3)CC2)c1", "assay_target": "human ether-à-go-go-related gene (hERG) potassium channel (human, UniProt Q12809)", "numeric_readout": -53.9}
{"cpd_smiles": "COc1ccc(N(CC(=O)Nc2cccc([N+](=O)[O-])c2C)S(C)(=O)=O)cc1OC", "assay_target": "human ether-à-go-go-related gene (hERG) potassium channel (human, UniProt Q12809)", "numeric_readout": -7.79}
{"cpd_smiles": "O=C(c1cccc(F)c1)N1CCN(c2ccc([N+](=O)[O-])c3cccnc23)CC1", "assay_target": "human ether-à-go-go-related gene (hERG) potassium channel (human, UniProt Q12809)", "numeric_readout": -66.1}
{"cpd_smiles": "CCCn1c(NC(=O)c2cccc(C)c2C)nc2ccccc21", "assay_target": "human ether-à-go-go-related gene (hERG) potassium channel (human, UniProt Q12809)", "numeric_readout": -26.7}

---

Quick reference: hERG current change (%, negative = inhibition) at 10uM of the listed items.
- assay_target: human ether-à-go-go-related gene (hERG) potassium channel (human);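 note: peak tail current of the secondary pulse compared with the same well before compound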
- assay_procedure: primary screen, population patch clamp on CHO cells stably expressing hERG; higher = less effect of the substance
The campaign covered roughly 310,000 compounds. About 14,000 (4.5%) showed an effect of 50% or more. The effect is printed as a negative number. Only a selection was taken, and strong results are over-represented in it overall.
quantity_kind: hERG current change (%, negative = inhibition) at 10uM (%)

{"molecule": "CC(=O)Nc1ccc(NC(=O)CSc2nnc(-c3ccco3)o2)cc1", "u": "%", "numeric_readout": 7.81}
{"molecule": "COc1ccc(CCC(C)NCc2ccc(C(F)(F)F)cc2)cc1 (centres unmarked)", "u": "%", "numeric_readout": -66.3}
{"molecule": "COc1cccc(CNC(=O)CCC2CCCN(C/C=C/c3ccccc3OC)C2)c1 (centres unmarked)", "u": "%", "numeric_readout": -68.5}
{"molecule": "COc1ccc(Cc2ccc(OC)c(N)c2)cc1N", "u": "%", "numeric_readout": -52.6}
{"molecule": "CCCOC(=O)c1ccc(Cl)c(NC(=O)c2ccc(-c3ccccc3)cc2)c1", "u": "%", "numeric_readout": -5.63}
{"molecule": "CSc1ncc(CN2CCCC(C(=O)c3ccc(C(C)(C)C)cc3)C2)cn1 (centres unmarked)", "u": "%", "numeric_readout": -31.9}
{"molecule": "COc1ccc(/C=C/CN2CCCC(CCC(=O)NCc3ccc(F)c(F)c3)C2)cc1 (centres unmarked)", "u": "%", "numeric_readout": -72.8}
{"molecule": "COc1ccc(CCC(C)NCc2cccc(Br)c2)cc1 (centres unmarked)", "u": "%", "numeric_readout": -64.6}
{"molecule": "COC(=O)c1ccccc1C(=O)N1CCCC(CCC(=O)NCc2ccc(F)c(F)c2)C1 (centres unmarked)", "u": "%", "numeric_readout": -10.1}
{"molecule": "CSc1ncc(CN2CCCC(C(=O)c3sccc3C)C2)cn1 (centres unmarked)", "u": "%", "numeric_readout": -55.2}
{"molecule": "CC(C)CCn1c(CN(C)Cc2ccccc2)nc2c1c(=O)n(C)c(=O)n2C", "u": "%", "numeric_readout": -43.9}
{"molecule": "CCOC(=O)c1ccc(NC(=O)CCSCCc2ccccn2)cc1", "u": "%", "numeric_readout": 0.702}
{"molecule": "CCOC(=O)c1cccc(P(=O)(C(C)(C)C)C(C)(C)C)c1", "u": "%", "numeric_readout": 17.1}
{"molecule": "CCN1C(=O)/C(=C/c2cccs2)N(C)C1=S", "u": "%", "numeric_readout": -7.99}
{"molecule": "CCn1cc(CN2CCCC(C(=O)c3sccc3C)C2)cn1 (centres unmarked)", "u": "%", "numeric_readout": -27.3}
{"molecule": "CCOC(=O)c1ccc(NC2c3ccccc3C(=O)N2c2cccnc2)cc1 (centres unmarked)", "u": "%", "numeric_readout": -57}
{"molecule": "O=C(O)COCC(=O)NCc1csc2ccccc12", "u": "%", "numeric_readout": 2.75}
{"molecule": "COc1cc(Cc2ccc(N)c(OC)c2)ccc1N", "u": "%", "numeric_readout": 11.1}
{"molecule": "O=C(CSc1n[nH]c(-c2ccco2)n1)Nc1ccccc1", "u": "%", "numeric_readout": -20.4}
{"molecule": "CC(=O)c1ccc(NC(=O)C2CCCC2)cc1", "u": "%", "numeric_readout": 10.7}
{"molecule": "COc1ccc(CCC(C)Nc2cccc(C)c2)cc1 (centres unmarked)", "u": "%", "numeric_readout": 4.48}
{"molecule": "O=C(O)c1ccc(NCc2cccnc2)c([N+](=O)[O-])c1", "u": "%", "numeric_readout": 30}
{"molecule": "CCCN1C(=O)/C(=C/c2nc3ccccc3c(=O)[nH]2)c2ccccc21", "u": "%", "numeric_readout": 1.75}
{"molecule": "CCN(CC)C(=O)CSc1nnc(-c2ccccc2)c(-c2ccccc2)n1", "u": "%", "numeric_readout": -20.4}
{"molecule": "O=C(CSc1nnc(-c2ccco2)c(-c2ccco2)n1)Nc1ccccc1", "u": "%", "numeric_readout": -75.2}
{"molecule": "CSc1ncc(CN2CCCC(C(=O)c3cccc(Cl)c3)C2)cn1 (centres unmarked)", "u": "%", "numeric_readout": -47.1}
